B1: TRIM55 (parent)
chain: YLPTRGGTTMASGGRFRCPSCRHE

Variants of: B1
PROTOCOL_TEXT: protein stability index of a GFP-peptide fusion (GPS, HEK-293T) (PSI 1-6); higher = more stable;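 also: lentivirally expressed fusions sorted by FACS into six bins by GFP to DsRed ratio, PSI derived from sequencing read proportions per bin multiplied by bin number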
CONDITION_LABEL: c terminus: a fixed tail appended
Please enter YES where protein stability index is greater than or equal to 2, and NO where it is lower.

Check out these entries, answers already filled in.
Please check the record G7A and state if its protein stability index is at or above 2.
NO

Please check the record S20L and state if its protein stability index is at or above 2.
YES

Please check the record Y1A and state if its protein stability index is at or above 2.
YES

Please check the record F16T and state if its protein stability index is at or above 2.
YES

Please check the record Y1Q and state if its protein stability index is at or above 2.
YES

Please check the record Y1I and state if its protein stability index is at or above 2.
YES

Please check the record P3E and state if its protein stability index is at or above 2.
NO

Please check the record S20W and state if its protein stability index is at or above 2.
NO

New cases:
Please check the record G7L and state if its protein stability index is at or above 2.
NO

Please check the record T8C and state if its protein stability index is at or above 2.
YES
